pIC50 listing for selected molecules.
# MEASURED_TARGET: Dimer of Gag-Pol polyprotein [489-587,Q496K] (Human immunodeficiency virus 1, UniProt P12497, Q496K)
# Construct: 489-587
# ASSAY_EXPLANATION: Protease Inhibition Assay
# CONDITION_CONTEXT: pH 5.5; 30 °C
pIC50: −log10 of the molar value.

{"GIVEN_SMILES": "CC(C)(c1ncc(-c2cncc(Cl)c2)o1)N1CCN(C[C@@H](O)C[C@@H](Cc2ccccc2)C(=O)N[C@H]2c3ccccc3OC[C@H]2O)[C@H](C(=O)NCC(F)(F)F)C1", "pIC50": 10.70}
{"GIVEN_SMILES": "CC(C)(c1ccc(-c2ccncc2)o1)N1CCN(C[C@@H](O)C[C@@H](Cc2ccccc2)C(=O)N[C@H]2c3ccccc3OC[C@H]2O)[C@H](C(=O)NCC(F)(F)F)C1", "pIC50": 10.30}
